Target Entity: Tyrosine-protein phosphatase non-receptor type 11 (Homo sapiens)
Protocol Description: Inhibition of H2N-LN(pY)IDLDLV-(dPEG80) LST(pY)-ASINFQK-amide-activated SHP2 (unknown origin) using DiFMUP as substrate incubated for 30 mins by fluorescence based assay
Readout Name: IC50 (nM)

Would you please look over these solved cases?
Molecule: NC1COCC12CCN(c1nc3ccc(Sc4ccnc5c4OC[C@@H]4CCCN54)cc3s1)CC2 (stereo partly drawn)
IC50 (nM): 837
//
Molecule: NC1COCC12CCN(c1nc3ccc(Sc4cccc(NC(=O)C5=C(O)CN(c6ccccc6)C5=O)c4Cl)nc3s1)CC2 (stereo not drawn)
IC50 (nM): 70.2
//
Molecule: Nc1cccc(Sc2ccc3nc(N4CCCC(N)CC4)sc3n2)c1Cl (stereo not drawn)
IC50 (nM): 372
//
Molecule: NC1COCC12CCN(c1nc3ccc(Sc4cccc(NC(=O)c5c(O)nc6ccccn6c5=O)c4Cl)nc3s1)CC2 (stereo not drawn)
IC50 (nM): 68.1
//
Molecule: CCC1C(O)=C(C(=O)Nc2cccc(Sc3ccc4nc(N5CCC(C)(N)CC5)sc4n3)c2Cl)C(=O)N1C (stereo not drawn)
IC50 (nM): 82.7

(P) NC1COCC12CCN(c1ncc(Sc3ccnc4c3OC[C@@H]3CCCN43)c3nncn13)CC2 (stereo partly drawn)
(Q) NC1COCC12CCN(c1nc3ccc(Sc4ccnc5c4OC[C@@H]4CCCN54)nc3s1)CC2 (stereo partly drawn)
(R) Nc1nccc(Sc2ccc3nc(N4CC5CC(C4)N5)sc3n2)c1Cl
# desc sort on IC50 across 3 molecules The response must list the labels following the requested ordering.
R, Q, P
(R: 623 nM, Q: 434 nM, P: 78.9 nM)
